- Test system: Mythimna separata
- assayComment: Antifeedant activity against Mythimna separata (Oriental armyworm) larvae assessed as antifeedant index by area of the leaf consumed
- Assay type: functional
- Set-up: concentration or dose not given beside the values
Can you tell me AFI for the items I'm about to list?

Missing value: AFI, Mythimna separata, entry CC(=O)O[C@@H]1C[C@H](O)[C@@]23CO[C@@H](O)[C@]1(C)[C@@H]2C[C@@H](O)[C@]1(C)[C@@H]3C(=O)[C@H](OC(C)=O)[C@@]2(C)[C@H](c3ccoc3)C[C@H]3O[C@]321 . Fill in?
97.5%

Missing value: AFI, Mythimna separata, entry C[C@@H]1N[C@H]2N(C1=O)c1ccccc1[C@@]2(O)C[C@@H]1C(=O)N[C@@H](C)c2nc3ccccc3c(=O)n21 . Fill in?
45%

Missing value: AFI, Mythimna separata, entry COc1ccc2c3c4n(c2c1)[C@H](C=C(C)C)OOC(C)(C)C[C@@H]4N1C(=O)[C@@H]2CCCN2C(=O)[C@]1(O)[C@H]3O . Fill in?
55%

Hey, just so you know, these numbers are from ChEMBL document CHEMBL3045178.
